Test system: PXR homodimer (NR concentration 270 nM)
EXPERIMENTAL_PROTOCOL: PBM binding z-score (relative to random genomic background probes); higher = stronger binding; sequences stand for … in GC…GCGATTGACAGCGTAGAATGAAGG
The following sequences are listed with their measured PBM binding z-score values.
READOUT: PBM binding z-score

>>> print(df.to_string())
                       sequence_record  meas_value
 0  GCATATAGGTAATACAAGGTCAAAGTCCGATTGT        2.12
 1  AGCGAAAGGTCGAGGTGAGTATAGAGAAAGGGAA       0.259
 2  TGTCAAAGTTCAAAGGTTACGTAAGTATCCACAC        4.04
 3  TAGCCTAGGGCATTCAGGGGCCAGTATAGAAAGC      -0.113
 4  CTATGTGGGTTAAGGGGGTCATTCAGTTTGAAAG        12.1
 5  ATATGTAGGTTAGGGTCAGTCAGAAAGTAGGGAA         1.6
 6  TTGCCTAGGTCATTGGGCCAGTATAGTACGCATC      -0.193
 7  CCTTACGGGTCACGTGGTTATAGCACGACGAGCG      -0.028
 8  TGAATGAGGTTAAATATCAGGGAACGTGGCGTCG       0.413
 9  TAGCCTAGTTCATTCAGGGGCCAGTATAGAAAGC       0.885
10  CAAACTAGGTCAAAAGGTCAAAGTCCGCTTCCCG        2.96
11  GTTACAGGGTCAAGGCCAGAGTACGCGTATTGAT       0.672

###

Tested on: RARg:RXRa (NR concentration 270 nM, RXRa partner concentration 90 nM)
EXPERIMENTAL_PROTOCOL: PBM binding z-score (relative to random genomic background probes); higher = stronger binding; sequences stand for … in GC…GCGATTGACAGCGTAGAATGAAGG
READOUT: PBM binding z-score

In [3]: df
Out[3]:
                      sequence_record  meas_value
0  TCTGCTAGGTCATCGATGGTCAGCTAATCTGCTA        3.79
1  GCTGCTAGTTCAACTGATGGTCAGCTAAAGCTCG        1.93
2  CCTTACGGGTCACTCCAGGTCATAGCATCGGAGT        5.28
3  AATACAGGGTCATCGTAGGTCAGAGTACGCACAG        6.41
4  CGTCCAAGGTCATAGGAGGTCAATGAAGACAGAT        6.94
5  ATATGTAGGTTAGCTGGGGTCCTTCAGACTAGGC       0.698

###

System: PPARg DBDmut:RXRa IVT, anti-PPARg (DBD mutation: PPARg1 K132A/R137A, NR concentration 270 nM, RXRa partner concentration 90 nM)
EXPERIMENTAL_PROTOCOL: PBM binding z-score (relative to random genomic background probes); higher = stronger binding; sequences stand for … in GC…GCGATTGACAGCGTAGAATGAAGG
Label condition met for high-side PBM binding z-score (at or above 2) and condition not met for low-side PBM binding z-score (below it).

In [3]: df
Out[3]:
                       sequence_record        label_class
 0  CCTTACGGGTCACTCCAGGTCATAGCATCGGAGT  condition not met
 1  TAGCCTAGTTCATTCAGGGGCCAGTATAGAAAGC  condition not met
 2  ATATGTAGGTTAGGGGTCATTCAGGTTGGTTCGC  condition not met
 3  ATATGTAGGTTACATCCGGGTCATCCAGGCTATG      condition met
 4  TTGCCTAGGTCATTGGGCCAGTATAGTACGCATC  condition not met
 5  ATCGAAAGGTCAAAGGTGAGTATACCCACCCGAA      condition met
 6  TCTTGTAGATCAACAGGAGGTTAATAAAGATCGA  condition not met
 7  TTGCCAAGGTGAAAGGTCGTTGATGCACGCCTTG  condition not met
 8  CAAACGAGGTCACCGGAAGGTCAAAGTCCGCATG      condition met
 9  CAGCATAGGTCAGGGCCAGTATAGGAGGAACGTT  condition not met
10  TGTCAAAGTTCAAAGGTCACGTAAGTATCCACAC      condition met
11  ATATGTAGGTTATCTGGGGTCATTCAGACTAGGC      condition met
